Data origin: ChEMBL document CHEMBL1201862

# Tested on: CCRF-CEM
# assay-method-text: NCI tumour cell line growth inhibition, 48 h
The source made the active and inactive calls. Rule as the data show it: active = GI50 up to about 1.1 µM and inactive = higher.
measured-attribute: GI50

INPUT: Query for CCRF-CEM: what GI50 does the record show for CC12CCC3C(CCC4(O)C=CCCC34C=O)C1(O)CC(O)C2c1ccc(=O)oc1 (stereo not given) ?
OUTPUT: 0.0526 µM (active)

INPUT: Query for CCRF-CEM: what GI50 does the record show for Cc1cc(Cl)ccc1NC(=O)/C(Cc1nc2ccc(C(=O)c3ccccc3)cc2nc1O)=N/NC(=O)c1ccncc1 ?
OUTPUT: > 100 µM (inactive)

INPUT: Query for CCRF-CEM: what GI50 does the record show for COc1nc(N)c(NC(C)=O)c(=O)n1C ?
OUTPUT: > 100 µM (inactive)

INPUT: Query for CCRF-CEM: what GI50 does the record show for CCOC(=O)COc1ccccc1/C=C1\CCC(CN(C)C)C1=O (stereo not given) ?
OUTPUT: 1.1 µM (active)

INPUT: Query for CCRF-CEM: what GI50 does the record show for C=CCN(CC=C)CC(C(C)=O)C(c1ccccc1)c1c(O)c2ccccc2oc1=O (stereo not given) ?
OUTPUT: > 100 µM (inactive)

INPUT: Query for CCRF-CEM: what GI50 does the record show for COc1cc(/C=C2\[C@@H]3NC(Cc4c(OC)c(C)c(OC)c(OC)c43)C(=O)N2Cc2ccccc2)c(OC)c(C)c1OC ?
OUTPUT: 30.8 µM (inactive)

INPUT: Query for CCRF-CEM: what GI50 does the record show for CN(C)NC(=S)Nc1ccccc1Br ?
OUTPUT: > 100 µM (inactive)

INPUT: Query for CCRF-CEM: what GI50 does the record show for Cc1ccc(/C=C2/N/C(=N\N=C/C(O)C(O)C(O)C(O)CO)NC2=O)cc1 (stereo not given) ?
OUTPUT: 95.3 µM (inactive)

INPUT: Query for CCRF-CEM: what GI50 does the record show for CC(NP(=O)(c1ccccc1)c1ccccc1)c1ccccc1 (stereo not given) ?
OUTPUT: > 100 µM (inactive)

INPUT: Query for CCRF-CEM: what GI50 does the record show for Cc1cnc2nc(-c3ccc(F)cc3)cc(O)c2c1 ?
OUTPUT: 25.6 µM (inactive)

INPUT: Query for CCRF-CEM: what GI50 does the record show for CCOC(=O)/C=C\C(C#N)(C#N)/N=C/c1ccsc1 ?
OUTPUT: 0.207 µM (active)

INPUT: Query for CCRF-CEM: what GI50 does the record show for COc1cc([N+](=O)[O-])c(OC)c2c(Nc3ccc(S(=O)(=O)O)c4cc(S(=O)(=O)O)cc(S(=O)(=O)O)c34)cc(C)nc12 ?
OUTPUT: > 100 µM (inactive)

INPUT: Query for CCRF-CEM: what GI50 does the record show for COc1ccc(/C=C2\C[C@H]3[C@@H]4CC=C5C[C@@H](OC(C)=O)CC[C@]5(C)[C@H]4CC[C@]3(C)C2=O)cc1OC ?
OUTPUT: 37 µM (inactive)

INPUT: Query for CCRF-CEM: what GI50 does the record show for Cc1ccc(C(=O)/C=C2\Nc3c(c(=O)oc4ccccc34)N=C2NC23CC4CC(CC(C4)C2)C3)cc1 ?
OUTPUT: > 100 µM (inactive)

INPUT: Query for CCRF-CEM: what GI50 does the record show for O=C1CC(=O)c2c(N3CCCC3)sc(N3CCCC3)c21 ?
OUTPUT: 41.2 µM (inactive)

INPUT: Query for CCRF-CEM: what GI50 does the record show for COc1ccccc1OCC(=N/NC(=O)c1ccncc1)/N=C/c1cccnc1 ?
OUTPUT: > 100 µM (inactive)

INPUT: Query for CCRF-CEM: what GI50 does the record show for CC(C)(C)OC(=O)NC(Cc1ccc(OCc2ccccc2)cn1)C(=O)NCc1ccccc1 (stereo not given) ?
OUTPUT: 12.4 µM (inactive)

INPUT: Query for CCRF-CEM: what GI50 does the record show for O=C(Nn1c(-c2ccccc2)nc2ccccc2c1=O)c1ccc(O)cc1 ?
OUTPUT: > 100 µM (inactive)

INPUT: Query for CCRF-CEM: what GI50 does the record show for O=C1CC(=O)NC(NNS(=O)(=O)c2ccccc2)=N1 ?
OUTPUT: > 100 µM (inactive)

INPUT: Query for CCRF-CEM: what GI50 does the record show for COc1ccc(CCNCc2cccc(OC)c2OC)cc1OC ?
OUTPUT: > 100 µM (inactive)
